Where do these numbers come from? They come from patent US7511145B2.

molecular target: HCV-NS5b (Hepatitis C virus genotype 1b); construct: (His)6 (C); made in house; host or cells: XL-1 cells (E. coli), IPTG-inducible plasmid, nickel-NTA purification; assay: HCV-NS5b enzyme assay (incorporation of radiolabeled UTP); format: biochemical; settings: read-out: % inh@100, enzyme inhibition at compound concentration of 100 uM
Hi there, I'd appreciate the recorded inhibition at 100 µM for every entry that follows.
Put down the number, then write its unit next to it.

Tell me reported inhibition at 100 µM for "COc1ccc(-c2cccc(Cl)c2)c(-c2ccc3cc(-c4nc5cc(C(=O)O)ccc5n4C4CCCCC4)ccc3n2)c1" , tested with HCV-NS5b (Hepatitis C virus genotype 1b).
99.2%

Can you handle "Cc1c(OCc2ccccc2)ccc(-c2ccc3cc(-c4nc5cc(C(=O)O)ccc5n4C4CCCCC4)ccc3n2)c1O" next?
101%

Can you handle "COc1ccc(C2CCCCC2)c(-c2ccc3cc(-c4nc5cc(C(=O)O)ccc5n4C4CCCCC4)ccc3n2)c1" next?
101%

Can you handle "O=C(O)c1ccc2c(c1)nc(-c1ccc3nc(-c4cc([N+](=O)[O-])ccc4-c4ccc(Cl)cc4)ccc3c1)n2C1CCCCC1" next?
97%

Can you handle "COc1ccc(-c2ccc(Cl)cc2)c(-c2ccc3cc(-c4nc5cc(C(=O)O)cnc5n4C4CCCCC4)ccc3n2)c1" next?
99.8%

Can you handle "C[C@H](NC(=O)c1ccc2c(c1)nc(-c1ccc3nc(-c4ccccc4)cnc3c1)n2C1CCCCC1)C(=O)O" next?
98.3%

Can you handle "O=C(O)c1ccc2c(c1)nc(-c1ccc3nc(-c4ccccc4)cnc3c1)n2C1CCCCC1" next?
97.5%
